- protocol notes: yeast display, Sf9 membrane polyspecificity reagent, FACS + sequencing; frameworks hold sequencing errors
readout label: polyreactivity (PSR sort gate)

Field: example entries. Status: answers known.
{"seq": "QVQLVESGGGLVQAGGSLRLSCAASGRIFSIYAMGWYRQAPGKERELVASINSGDSTYYADSVKGRFTISRDNAKNTVYLQMNSLKPEDTAVYYCAATLVTVPLYRFDYWGQGTQVTVSS", "assay value": "low polyreactivity"}
{"seq": "QVQLVESGGGLVQAGGSLRLSCAASGITIRRYAMGWYRQAPGKERELVAAITTGGGGTYYADSVKGRFTISRDNAKNTVYLQMNSLKPEDTAVYYCAATYWRTYPSYYWGQGTQVTVSS", "assay value": "high polyreactivity"}
{"seq": "QVQLVESGGGLVQAGGSLRLSCAASGSIFAYYAMGWYRQAPGKERELVAAISRRGATTYYSDSVKGRFTISRDNAKNTVYLQMNSLKPEDTAVYYCAARTPYWTSYLRYWGQGTQVTVSS", "assay value": "high polyreactivity"}
{"seq": "QVQLVESGGGLVQAGGSLRLSCAASGRIFLTNAMGWYRQAHGKERELVADISRGGSTYADSVKGRFTISRDNAKNTVYLQMNSLKPEDTAVYYCAADEYSPGDSRTRYDYWGQGTQVTVSS", "assay value": "low polyreactivity"}

Lab note: next sequence to report on.
The sequence listed as `QVQLIESGGGLVQAGGSLRLSCAASGLTFYSYAMGWYRQAPGKEREFVAVINWSGGRTYYADSVKGRFTISRDTAKNTVFLQMNSLKPEDTAVYYCAAVRYFASSRRYDYLGQGTQVTVSS` shows polyreactivity (PSR sort gate) equal to high polyreactivity

* * *

- protocol notes: yeast display, Sf9 membrane polyspecificity reagent, FACS + sequencing; frameworks hold sequencing errors
readout label: polyreactivity (PSR sort gate)

Examples with answers:
{"seq": "QVQLVESGGGLVQAGVSLRLSCAASGFIFSFNAMGWYRQAPGKERELVAAISRSGGSTRYADSVKGRFTISRDNAKNTVYLQMNCLKPEDTAVYYCNARSPYYSYLLHAYRLFDYWGQGTQVTVSS", "polyreactivity (PSR sort gate)": "high polyreactivity"}
{"seq": "QVQLVESGGGLFQAGGSLRLSCSASGFIFRGYAMGWSRQAPGKERELVAAISTGGGRTYYADSVKGRFTISRDNAKNTVYLQMNSLKPEDTAVYYCNRLSYTQVLMDYWGQGTQVTVSS", "polyreactivity (PSR sort gate)": "high polyreactivity"}
{"seq": "QVQLVESGGGLVQAGGSLRISCAASGFIFGTNAKGWYRQAPGKERELVAAINCRGGGTYYADSVKGRFTISRDNAKYTVYLEMNSLKPEDTAVYYCAASRFDYWGQGTQVTVSS", "polyreactivity (PSR sort gate)": "low polyreactivity"}
{"seq": "QVQLVESGLGLVQAAGSLRLSCAASGSILYSYAMGWYRQAPGKERELFAAITGAGASTNYADSVKGRFTISRDNGKNTVYLQMNSLKPEDTAVYYCNAEYNPYHYYKAWVYTYDYGYWGQGTQVTVSS", "polyreactivity (PSR sort gate)": "low polyreactivity"}
{"seq": "QVQLVESGGGLVQAGGSLRLSCAASGIILGKNAMGWYRQAPGKERELVASITSGAGITYYADSVKGRFTISRDTAKNTVYLQMNSLKPEDTAVYYCNTYPYLWGQGTQVTVSS", "polyreactivity (PSR sort gate)": "low polyreactivity"}

sequence `QVQLVESGGGLVQAGGSLRLSCAASGSIFLPYAMGWYRQAPGKERELVAAITRRGTSTYYADSVKGRFTISRDNAKNTVYLQMNSLKPEDTAVYYCAAEIKYWYSAYAYGYWGQGTQVTVSS` , polyreactivity (PSR sort gate) observed: high polyreactivity

Recorded result, `QVQLVESGGGLVQAGGSLRLSCAASGFIFYYNAMGWYRQAPGKERELVAAITRSGGSTFYADSVKGRFTISRDNAKNTVYLQMNSLKPEDTAVYYCAAKGNPYRVPGSSYPKVNYWGQGTQVTVSS` , polyreactivity (PSR sort gate): high polyreactivity

Recorded polyreactivity (PSR sort gate) (sequence `QVQLVESGGGLVQAGGRLRLSCPASGRIFSLYAMGWYRQAPGKERELVAVISSTGVSSHYADSVKGRFTISRDNAKYTVYLLMNSLNPEDTAVYYCNARWSFPRWGYEYGYWGQGTQVTVSS` ): high polyreactivity
